# Tested on: bacterial mixed culture
# Format: cell-based
# condition description: 30 mg/l; 24 hours at 30 °C in Tyrode solution, growth on Caso Peptone plates
readout name: Effect after 24 h 30

| molecule | readout name | value observed |
| --- | --- | --- |
| CCCCCCCCCCCCCC[P+](CCCC)(CCCC)CCCC [Example 7, [(n-C4H9)3P n-C14H29]^+[lO4]^-] | Effect after 24 h 30 | - |
| CCCCCCCCCCCCCC[P+](CCCC)(CCCC)CCCC [Example 2, [(n-C4H9)3P n-C14H29]^+HSO4-] | Effect after 24 h 30 | - |

---

# assay text: Solubility of the isolated product (water, alcohol)
# Type: physicochemical
# condition description: in water
readout name: solubility

stdin: Any idea what its solubility is? The compound is CCCCCCCCCCCCCC[P+](CCCC)(CCCC)CCCC [Example 6, ([n-C4H9)3P n-C14H29]^+[B(C6H5)4]^-]
stdout: ≤ 20 µg/mL
